# credit: PubChem BioAssay (Tox21)

- assayedSystem: Voltage-gated inwardly rectifying potassium channel KCNH2 (Homo sapiens) (UniProt Q12809)
- Sequence (Q12809 whole entry, looked up): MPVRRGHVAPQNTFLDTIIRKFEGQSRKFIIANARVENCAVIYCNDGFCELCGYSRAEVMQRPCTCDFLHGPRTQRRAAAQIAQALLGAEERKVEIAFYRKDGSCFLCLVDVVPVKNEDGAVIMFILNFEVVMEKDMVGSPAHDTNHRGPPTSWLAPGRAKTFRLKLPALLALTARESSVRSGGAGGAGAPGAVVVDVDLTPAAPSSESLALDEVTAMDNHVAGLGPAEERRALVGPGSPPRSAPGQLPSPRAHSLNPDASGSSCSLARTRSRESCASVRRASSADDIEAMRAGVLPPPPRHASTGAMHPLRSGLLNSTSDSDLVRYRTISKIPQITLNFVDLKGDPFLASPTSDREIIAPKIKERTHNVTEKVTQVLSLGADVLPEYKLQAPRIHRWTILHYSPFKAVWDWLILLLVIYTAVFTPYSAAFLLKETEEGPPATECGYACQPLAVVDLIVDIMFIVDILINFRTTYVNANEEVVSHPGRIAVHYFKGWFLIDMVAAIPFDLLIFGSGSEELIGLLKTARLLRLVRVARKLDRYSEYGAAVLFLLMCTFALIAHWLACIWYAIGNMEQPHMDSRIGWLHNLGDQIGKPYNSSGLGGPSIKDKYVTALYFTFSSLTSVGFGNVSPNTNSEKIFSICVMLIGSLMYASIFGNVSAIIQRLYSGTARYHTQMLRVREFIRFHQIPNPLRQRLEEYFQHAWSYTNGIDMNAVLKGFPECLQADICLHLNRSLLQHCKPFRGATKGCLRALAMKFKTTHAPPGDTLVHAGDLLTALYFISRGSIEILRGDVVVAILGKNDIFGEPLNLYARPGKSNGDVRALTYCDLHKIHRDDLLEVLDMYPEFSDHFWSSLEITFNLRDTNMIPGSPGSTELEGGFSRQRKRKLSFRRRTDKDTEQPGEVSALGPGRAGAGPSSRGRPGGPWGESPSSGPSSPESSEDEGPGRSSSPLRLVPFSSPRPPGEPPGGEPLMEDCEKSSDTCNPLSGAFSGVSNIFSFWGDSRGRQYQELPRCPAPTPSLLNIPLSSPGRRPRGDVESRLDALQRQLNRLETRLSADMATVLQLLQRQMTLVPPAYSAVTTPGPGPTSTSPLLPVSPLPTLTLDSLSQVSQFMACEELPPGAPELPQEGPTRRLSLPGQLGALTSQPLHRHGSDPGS
- protocolNotes: Human Ether-a-go-go-Related Gene (hERG) channel small molecule antagonists: fluorescence cell-based qHTS assay (AID 1671200); note: potency is the fitted concentration of half-maximal effect; nearly all actives have a fitted effect of over 50% in size
- measurementParameters: hERG-U2OS cells, FluxOR thallium flux fluorescence; series mostly up to 76.8 µM
Inconclusive results are not listed. The source made the active and inactive calls. Calls come from the whole dose curve; as a rule, active = well fitted inhibition curve with a large enough effect in the repeat runs; inconclusive = weak or mixed curves; inactive = flat fitted curve, though single readings scatter.
metric: Potency

Can you look up the measured Potency of "CCCCCCCCN(C)CCCCCCCC" for me? 1.57 µM (active)

Can you look up the measured Potency of CCCCCN(CCCCC)C(=O)C(CCC(=O)O)NC(=O)c1ccc(Cl)c(Cl)c1 (centres undefined) for me? 9.52 µM (active)

Can you look up the measured Potency of CCN1CCCC(OC(=O)C(c2ccccc2)c2ccccc2)C1 (centres undefined) for me? 3.38 µM (active)

Can you look up the measured Potency of "O=[N+]([O-])c1ccc(Oc2ccc([N+](=O)[O-])cc2)cc1" for me? 39.8 µM (active)
